# Tested on: 596521-263-R-J1-PDC complex spheroids, viability % of control
# testName: Anticancer human tumor 596521-263-R-J1-PDC patient-derived soft tissue sarcoma cell line growth inhibition [GQUAD]
# assayContext: second compound 1 µM; first compound 1 µM; active compounds read low
observable: viability, T/C

{"columns": ["compound", "observable", "result"],
 "data": [
  ["CC(C)n1c(=O)n(C)c2cnc3cc(F)c(-c4ccc(OCCCN5CCCCC5)nc4)cc3c21 + CN(C)c1ccc(Nc2c3ccc(NC(=O)CCN4CCCC4)cc3nc3cc(NC(=O)CCN4CCCC4)ccc23)cc1", "viability, T/C", "98.5%"],
  ["O=c1[nH]cc(F)c(=O)[nH]1 + CN(C)c1ccc(Nc2c3ccc(NC(=O)CCN4CCCC4)cc3nc3cc(NC(=O)CCN4CCCC4)ccc23)cc1", "viability, T/C", "111%"],
  ["CC(C)(O)C1CCC(Nc2ccc3ncc(-c4cccc(C(F)(F)F)c4)n3n2)CC1 (stereo not given) + Cc1cnc(CNC(=O)c2c(=O)c3ccc(N4CCCN(C)CC4)nc3n3c2sc2ccccc23)cn1", "viability, T/C", "47.8%"]
]}

## Input State its viability, T/C: CC(C)(O)C1CCC(Nc2ccc3ncc(-c4cccc(C(F)(F)F)c4)n3n2)CC1 (stereo not given) + Cc1[nH]c2ccc(F)cc2c1-c1nc2c3cccnc3c3ncccc3c2[nH]1
## Output 101%

## Input State its viability, T/C: COc1cccc2c1C(=O)c1c(O)c3c(c(O)c1C2=O)CC(O)(C(=O)CO)CC3OC1CC(N)C(O)C(C)O1 (stereo not given) + CN(C)c1ccc(Nc2c3ccc(NC(=O)CCN4CCCC4)cc3nc3cc(NC(=O)CCN4CCCC4)ccc23)cc1
## Output 55.8%

----------
# Test system: 596521-263-R-J1-PDC complex spheroids, viability % of control
# testName: Anticancer human tumor 596521-263-R-J1-PDC cell line growth inhibition [GQUAD];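 also: spheroids exposed to drugs for 7 days before viability reading; 100% = DMSO vehicle control viability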
# assayContext: second compound 10 µM; first compound 10 µM; active compounds read low
observable: viability, T/C (%)
Give the number; % is assumed, so skip it.

Completed entries (count: 8):
{"columns": ["compound", "viability, T/C, %"],
 "data": [
  ["O=C(NO)c1cnc(N2CCN(S(=O)(=O)c3ccc4ccccc4c3)CC2)nc1 + Cc1[nH]c2ccc(F)cc2c1-c1nc2c3cccnc3c3ncccc3c2[nH]1", 29.8],
  ["CCCS(=O)(=O)Nc1ccc(F)c(C(=O)c2c[nH]c3ncc(-c4ccc(Cl)cc4)cc23)c1F + Cc1[nH]c2ccc(F)cc2c1-c1nc2c3cccnc3c3ncccc3c2[nH]1", 30.4],
  ["O=C(c1cc(Cc2n[nH]c(=O)c3ccccc23)ccc1F)N1CCN(C(=O)C2CC2)CC1 + CN(C)c1ccc(Nc2c3ccc(NC(=O)CCN4CCCC4)cc3nc3cc(NC(=O)CCN4CCCC4)ccc23)cc1", 59.9],
  ["CC(C)n1c(=O)n(C)c2cnc3cc(F)c(-c4ccc(OCCCN5CCCCC5)nc4)cc3c21 + Cc1cnc(CNC(=O)c2c(=O)c3ccc(N4CCCN(C)CC4)nc3n3c2sc2ccccc23)cn1", 9.8],
  ["C=CC(=O)N1CCN(c2nc(=O)n(-c3c(C)ccnc3C(C)C)c3nc(-c4c(O)cccc4F)c(F)cc23)C(C)C1 (stereo not given) + CN(C)c1ccc(Nc2c3ccc(NC(=O)CCN4CCCC4)cc3nc3cc(NC(=O)CCN4CCCC4)ccc23)cc1", 58.3],
  ["Nc1ccn(C2OC(CO)C(O)C2(F)F)c(=O)n1 (stereo not given) + Cc1cnc(CNC(=O)c2c(=O)c3ccc(N4CCCN(C)CC4)nc3n3c2sc2ccccc23)cn1", 23.4],
  ["CC1COCCN1c1cc(C2(S(C)(=N)=O)CC2)nc(-c2ccnc3[nH]ccc23)n1 (stereo not given) + Cc1[nH]c2ccc(F)cc2c1-c1nc2c3cccnc3c3ncccc3c2[nH]1", 43.9],
  ["C#Cc1c(F)ccc2cc(O)cc(-c3ncc4c(N5CC6CCC(C5)N6)nc(OCC56CCCN5CC(F)C6)nc4c3F)c12 (stereo not given) + CN(C)c1ccc(Nc2c3ccc(NC(=O)CCN4CCCC4)cc3nc3cc(NC(=O)CCN4CCCC4)ccc23)cc1", 36.8]
]}

## Input State its viability, T/C: Cc1cccc(N(C)C(=O)C2C(O)CCN2c2nc(C)cc(C(F)(F)F)c2C#N)c1 (stereo not given) + CN(C)c1ccc(Nc2c3ccc(NC(=O)CCN4CCCC4)cc3nc3cc(NC(=O)CCN4CCCC4)ccc23)cc1
## Output 47.8

## Input State its viability, T/C: C=CCn1c(=O)c2cnc(Nc3ccc(N4CCN(C)CC4)cc3)nc2n1-c1cccc(C(C)(C)O)n1 + Cc1cnc(CNC(=O)c2c(=O)c3ccc(N4CCCN(C)CC4)nc3n3c2sc2ccccc23)cn1
## Output 0.23

## Input State its viability, T/C: COc1cccc2c1C(=O)c1c(O)c3c(c(O)c1C2=O)CC(O)(C(=O)CO)CC3OC1CC(N)C(O)C(C)O1 (stereo not given) + Cc1[nH]c2ccc(F)cc2c1-c1nc2c3cccnc3c3ncccc3c2[nH]1
## Output 3.33

## Input State its viability, T/C: COc1cc(C2c3cc4c(cc3C(OC3OC5COC(C)OC5C(O)C3O)C3COC(=O)C23)OCO4)cc(OC)c1O (stereo not given) + Cc1cnc(CNC(=O)c2c(=O)c3ccc(N4CCCN(C)CC4)nc3n3c2sc2ccccc23)cn1
## Output 19.4

## Input State its viability, T/C: CCCS(=O)(=O)Nc1ccc(F)c(C(=O)c2c[nH]c3ncc(-c4ccc(Cl)cc4)cc23)c1F + Cc1cnc(CNC(=O)c2c(=O)c3ccc(N4CCCN(C)CC4)nc3n3c2sc2ccccc23)cn1
## Output 0.21

## Input State its viability, T/C: COc1cc(C2c3cc4c(cc3C(OC3OC5COC(C)OC5C(O)C3O)C3COC(=O)C23)OCO4)cc(OC)c1O (stereo not given) + CN(C)c1ccc(Nc2c3ccc(NC(=O)CCN4CCCC4)cc3nc3cc(NC(=O)CCN4CCCC4)ccc23)cc1
## Output 42.9

## Input State its viability, T/C: COc1ccc([C@@H](O)c2cc(-c3ncnc4cc(N5CCOCC5)ccc34)c(F)cc2Cl)nn1 + Cc1[nH]c2ccc(F)cc2c1-c1nc2c3cccnc3c3ncccc3c2[nH]1
## Output 42.4

## Input State its viability, T/C: O=C(c1cc(Cc2n[nH]c(=O)c3ccccc23)ccc1F)N1CCN(C(=O)C2CC2)CC1 + Cc1[nH]c2ccc(F)cc2c1-c1nc2c3cccnc3c3ncccc3c2[nH]1
## Output 58.5

## Input State its viability, T/C: COc1ccc([C@@H](O)c2cc(-c3ncnc4cc(N5CCOCC5)ccc34)c(F)cc2Cl)nn1 + CN(C)c1ccc(Nc2c3ccc(NC(=O)CCN4CCCC4)cc3nc3cc(NC(=O)CCN4CCCC4)ccc23)cc1
## Output 31.6

## Input State its viability, T/C: COc1cccc2c1C(=O)c1c(O)c3c(c(O)c1C2=O)CC(O)(C(=O)CO)CC3OC1CC(N)C(O)C(C)O1 (stereo not given) + Cc1cnc(CNC(=O)c2c(=O)c3ccc(N4CCCN(C)CC4)nc3n3c2sc2ccccc23)cn1
## Output 0.27

## Input State its viability, T/C: C=CCn1c(=O)c2cnc(Nc3ccc(N4CCN(C)CC4)cc3)nc2n1-c1cccc(C(C)(C)O)n1 + Cc1[nH]c2ccc(F)cc2c1-c1nc2c3cccnc3c3ncccc3c2[nH]1
## Output 31.2

## Input State its viability, T/C: C=CCn1c(=O)c2cnc(Nc3ccc(N4CCN(C)CC4)cc3)nc2n1-c1cccc(C(C)(C)O)n1 + CN(C)c1ccc(Nc2c3ccc(NC(=O)CCN4CCCC4)cc3nc3cc(NC(=O)CCN4CCCC4)ccc23)cc1
## Output 20.7
